Target: human ANO6 (Homo sapiens)
Construct: expressed in transfected cells
Sequence (Q4KMQ2 1-931 isoform Q4KMQ2-2): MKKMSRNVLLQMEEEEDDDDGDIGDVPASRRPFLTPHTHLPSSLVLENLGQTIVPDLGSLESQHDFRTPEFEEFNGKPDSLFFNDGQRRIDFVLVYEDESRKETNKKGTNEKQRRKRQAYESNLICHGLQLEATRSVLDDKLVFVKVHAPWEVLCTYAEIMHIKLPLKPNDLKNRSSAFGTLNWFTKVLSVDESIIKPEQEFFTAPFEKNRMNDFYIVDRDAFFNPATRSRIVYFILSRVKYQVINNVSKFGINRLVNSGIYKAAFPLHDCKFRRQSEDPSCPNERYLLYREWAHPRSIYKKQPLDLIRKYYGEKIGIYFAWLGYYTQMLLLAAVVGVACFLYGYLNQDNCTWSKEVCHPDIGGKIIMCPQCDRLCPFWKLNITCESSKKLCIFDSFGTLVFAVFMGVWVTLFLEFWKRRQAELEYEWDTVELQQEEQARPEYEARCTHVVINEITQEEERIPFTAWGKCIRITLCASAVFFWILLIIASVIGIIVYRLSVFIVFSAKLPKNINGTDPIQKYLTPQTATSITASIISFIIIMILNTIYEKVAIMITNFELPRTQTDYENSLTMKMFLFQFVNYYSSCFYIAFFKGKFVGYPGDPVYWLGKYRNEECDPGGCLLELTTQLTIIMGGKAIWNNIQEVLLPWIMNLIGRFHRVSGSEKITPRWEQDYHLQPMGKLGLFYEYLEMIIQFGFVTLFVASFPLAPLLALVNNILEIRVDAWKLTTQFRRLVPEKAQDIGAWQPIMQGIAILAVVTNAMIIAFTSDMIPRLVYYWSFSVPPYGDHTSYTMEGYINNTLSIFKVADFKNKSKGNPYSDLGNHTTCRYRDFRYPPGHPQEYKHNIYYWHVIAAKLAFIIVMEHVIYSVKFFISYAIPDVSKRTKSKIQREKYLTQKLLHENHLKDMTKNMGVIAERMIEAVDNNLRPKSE
Assay: LACT C2 assay (phosphatidylserine scramblase function assay)
Format: cell-based
Conditions: test compound 100 nM, FRT cells expressing human ANO6, 10 μM ionomycin, read-out: Inhibition Level 100 nM
Examples of compounds with documented inhibition at 0.1 µM follow.

Some solved entries appear below for comparison.
compound	inhibition at 0.1 µM
O=C(NCc1ccc2c(c1)OCO2)c1cccc(Nc2ccc(-c3ccccc3)nn2)c1	< 30%
CC(CCc1ccccc1)NC(=O)c1cccc(Nc2ccc(-c3ccccc3)nn2)c1 (stereo not drawn)	< 30%
CC(C)c1ccc(CNC(=O)c2cccc(Nc3ccc(-c4ccccc4)nn3)c2)cc1	< 30%
O=C(NCc1ccc(C(F)(F)F)cc1)c1cccc(Nc2ncc(-c3cccc(F)c3)cn2)c1	< 30%
Cc1ccc(CCNC(=O)c2cccc(Nc3ncc(-c4cccc(F)c4)cn3)c2)o1	< 30%

Next item in the queue.
Using the record for Cc1c(C2CC2NC(=O)c2cccc(Nc3ncc(-c4ccccc4)cn3)c2)cnn1C (stereo not drawn) , report its inhibition at 0.1 µM. < 30%

###

Target: human ANO6 (Homo sapiens)
Construct: expressed in transfected cells
Experiment: LACT C2 assay (phosphatidylserine scramblase function assay)
Assay type: cell-based
Settings: test compound 100 nM, FRT cells expressing human ANO6, 10 μM ionomycin, read-out: Inhibition Level 100 nM
value type: inhibition at 0.1 µM

Some solved entries appear below for comparison.
compound	result
Cc1cc(CNC(=O)c2cccc(Nc3ccc(-c4ccccc4)nn3)c2)ccc1F [Compound 231]	< 30%
Cc1cscc1-c1cnc(Nc2cccc(C(=O)Nc3cccc(F)c3)c2)nc1 [Compound 179]	≥ 60%
O=C(Nc1cccc(F)c1)C1CCCC(Nc2ccc(-c3ccccc3)nn2)C1 (stereo not drawn) [Compound 191]	< 30%
Cc1ccc(CNC(=O)c2cccc(Nc3ccc(-c4ccoc4)nn3)c2)o1 [Compound 7]	< 30%

Using the record for O=C(NC1CCCCCC1)c1cccc(Nc2ccc(-c3ccc(F)cc3)nn2)c1 [Compound A3] , report its inhibition at 0.1 µM. < 30%

Using the record for O=C(NC1CC1c1ccccc1)c1cccc(Nc2ccc(-c3ccccc3)nn2)c1 (stereo not drawn) [Compound 67] , report its inhibition at 0.1 µM. ≥ 60%

###

Examples of molecules with documented inhibition at 1 µM follow.
Target: human ANO6 (Homo sapiens, UniProt Q4KMQ2)
Construct: expressed in transfected cells
Experiment: YFP quenching assay (ANO6 ion channel activity)
Type: cell-based
Settings: test compound 1 μM, 10 μM ionomycin, read-out: Inhibition Level 1 μM

molecule	target of assay	inhibition at 1 µM
O=C(NCC1COC1)c1cccc(Nc2ccc(-c3ccccc3)nn2)c1	human ANO6 (Homo sapiens, UniProt Q4KMQ2)	< 30%
O=C(NCCN1CC2CCC1C2)c1cccc(Nc2ncc(-c3ccccc3)cn2)c1 (stereo not shown)	human ANO6 (Homo sapiens, UniProt Q4KMQ2)	< 30%
CCCCCCNC(=O)c1cccc(Nc2ccc(-c3ccccc3)nn2)c1	human ANO6 (Homo sapiens, UniProt Q4KMQ2)	≥ 60%
Cc1ccc(CNC(=O)c2cccc(Nc3ccc(C4CCOC4)nn3)c2)o1 (stereo not shown)	human ANO6 (Homo sapiens, UniProt Q4KMQ2)	< 30%
Cc1ccc(CNC(=O)c2cccc(Nc3ccc(C#N)nn3)c2)o1	human ANO6 (Homo sapiens, UniProt Q4KMQ2)	< 30%

Record lookup: for human ANO6 (Homo sapiens, UniProt Q4KMQ2), what inhibition at 1 µM belongs to Cc1ccc(CNC(=O)c2cccc(Nc3ccc(-c4ccccc4)cc3)c2)o1 ? ≥ 60%

Record lookup: for human ANO6 (Homo sapiens, UniProt Q4KMQ2), what inhibition at 1 µM belongs to Cc1ccc(CNC(=O)c2cccc(Nc3ncc(-c4ccccc4)nn3)c2)o1 ? 30 to 60%

Record lookup: for human ANO6 (Homo sapiens, UniProt Q4KMQ2), what inhibition at 1 µM belongs to COc1cccc(CNC(=O)c2cccc(Nc3ccc(-c4ccc(F)cc4)nn3)c2)c1 ? 30 to 60%

Record lookup: for human ANO6 (Homo sapiens, UniProt Q4KMQ2), what inhibition at 1 µM belongs to Cc1ccc(CNC(=O)c2cccc(Nc3ccc(-c4cccc(F)c4)nn3)c2)o1 ? ≥ 60%

Record lookup: for human ANO6 (Homo sapiens, UniProt Q4KMQ2), what inhibition at 1 µM belongs to O=C(NCCN1CCCC1)c1cccc(Nc2ncc(-c3ccccc3)cn2)c1 ? < 30%

###

Examples of compounds with documented inhibition at 0.1 µM follow.
Target: human ANO6 (Homo sapiens)
Construct: expressed in transfected cells
Experiment: LACT C2 assay (phosphatidylserine scramblase function assay)
Type: cell-based
Conditions: test compound 100 nM, FRT cells expressing human ANO6, 10 μM ionomycin, read-out: Inhibition Level 100 nM

compound	target of assay	inhibition at 0.1 µM
O=C(NCc1ccc(F)c(C(F)(F)F)c1)c1cccc(Nc2ccc(-c3ccccc3)nn2)c1	human ANO6 (Homo sapiens)	< 30%
CCCCCCCNC(=O)c1cccc(Nc2ccc(-c3ccccc3)nn2)c1	human ANO6 (Homo sapiens)	≥ 60%
O=C(N[C@@H]1C[C@H]1c1ccccc1)c1cccc(Nc2ccc(-c3cnccn3)cc2)c1	human ANO6 (Homo sapiens)	< 30%
O=C(Nc1cccc(F)c1)c1cccc(Nc2ccc(-c3ccccc3)nn2)c1	human ANO6 (Homo sapiens)	30 to 60%
N#CC(NC(=O)c1cccc(Nc2ccc(-c3ccccc3)nn2)c1)c1ccc(F)cc1 (stereo not drawn)	human ANO6 (Homo sapiens)	< 30%
Cc1ccc(CNC(=O)c2cccc(Nc3ncc(-c4cccc(F)c4)cn3)c2)c(C)c1	human ANO6 (Homo sapiens)	< 30%
COc1cc(F)ccc1CNC(=O)c1cccc(Nc2ccc(-c3ccccc3)nn2)c1	human ANO6 (Homo sapiens)	< 30%
O=C(NCCc1cccc(C(F)(F)F)c1)c1cccc(Nc2ncc(-c3cccc(F)c3)cn2)c1	human ANO6 (Homo sapiens)	≥ 60%

Next item in the queue.
Using the record for O=C(Nc1ccc2c(c1)CNC2)c1cccc(Nc2ncc(-c3cccc(F)c3)cn2)c1 , report its inhibition at 0.1 µM. < 30%

###

Target: human ANO6 (Homo sapiens, UniProt Q4KMQ2)
Construct: expressed in transfected cells
Sequence (Q4KMQ2 1-931 isoform Q4KMQ2-2): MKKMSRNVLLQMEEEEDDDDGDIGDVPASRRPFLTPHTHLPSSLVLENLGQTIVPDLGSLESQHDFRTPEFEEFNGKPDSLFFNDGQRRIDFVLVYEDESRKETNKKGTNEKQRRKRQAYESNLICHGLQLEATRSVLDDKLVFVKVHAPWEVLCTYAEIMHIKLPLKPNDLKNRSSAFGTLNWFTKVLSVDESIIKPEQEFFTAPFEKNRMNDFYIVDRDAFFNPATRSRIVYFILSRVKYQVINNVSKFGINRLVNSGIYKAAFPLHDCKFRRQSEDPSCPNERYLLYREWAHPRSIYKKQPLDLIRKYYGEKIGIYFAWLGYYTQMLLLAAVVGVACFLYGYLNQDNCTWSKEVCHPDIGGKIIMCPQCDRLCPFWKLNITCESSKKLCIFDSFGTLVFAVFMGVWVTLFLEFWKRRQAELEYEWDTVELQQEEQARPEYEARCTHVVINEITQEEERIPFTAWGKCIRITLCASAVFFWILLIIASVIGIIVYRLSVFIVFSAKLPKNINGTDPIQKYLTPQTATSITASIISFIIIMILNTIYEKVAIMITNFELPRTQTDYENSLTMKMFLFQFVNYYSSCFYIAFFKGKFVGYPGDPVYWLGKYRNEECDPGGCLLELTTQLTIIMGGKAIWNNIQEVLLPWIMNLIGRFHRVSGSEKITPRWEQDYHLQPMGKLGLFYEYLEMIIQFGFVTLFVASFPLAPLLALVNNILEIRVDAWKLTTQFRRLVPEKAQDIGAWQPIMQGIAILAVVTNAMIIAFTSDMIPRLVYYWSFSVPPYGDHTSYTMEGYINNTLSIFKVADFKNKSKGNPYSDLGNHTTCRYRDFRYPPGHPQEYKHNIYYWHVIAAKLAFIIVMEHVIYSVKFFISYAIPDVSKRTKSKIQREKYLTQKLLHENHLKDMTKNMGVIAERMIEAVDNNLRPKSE
Assay: LACT C2 assay (phosphatidylserine scramblase function assay)
Assay type: cell-based
Settings: test compound 100 nM, FRT cells expressing human ANO6, 10 μM ionomycin, read-out: Inhibition Level 100 nM
value type: inhibition at 0.1 µM

Record lookup: for human ANO6 (Homo sapiens, UniProt Q4KMQ2), what inhibition at 0.1 µM belongs to Cc1ccc(CNC(=O)c2cccc(Nc3ccc(-c4ccccc4)cc3)c2)o1 [Compound 3] ? < 30%

Record lookup: for human ANO6 (Homo sapiens, UniProt Q4KMQ2), what inhibition at 0.1 µM belongs to O=C(Nc1cccc(F)c1)c1cccc(Nc2ccc(-c3ccncn3)cc2)c1 [Compound 175] ? ≥ 60%

Record lookup: for human ANO6 (Homo sapiens, UniProt Q4KMQ2), what inhibition at 0.1 µM belongs to O=C(NC1CCN(Cc2ccccc2)CC1)c1cccc(Nc2ccc(-c3ccccc3)nn2)c1 [Compound A73] ? < 30%

Record lookup: for human ANO6 (Homo sapiens, UniProt Q4KMQ2), what inhibition at 0.1 µM belongs to O=C(NCCCc1ccccc1)c1cccc(Nc2ncc(-c3cccc(F)c3)cn2)c1 [Compound 60] ? 30 to 60%

Record lookup: for human ANO6 (Homo sapiens, UniProt Q4KMQ2), what inhibition at 0.1 µM belongs to O=C(NCc1ccccc1)c1cccc(Nc2ccc(-c3ccc(F)cc3)nn2)c1 [Compound A16] ? < 30%

Record lookup: for human ANO6 (Homo sapiens, UniProt Q4KMQ2), what inhibition at 0.1 µM belongs to O=C(NCCc1ccccc1)c1cccc(Nc2ccc(-c3ccc(F)cc3)nn2)c1 [Compound A4] ? < 30%

Record lookup: for human ANO6 (Homo sapiens, UniProt Q4KMQ2), what inhibition at 0.1 µM belongs to CC(C)NC(=O)c1cccc(Nc2ccc(-c3ccccc3)nn2)c1 [Compound A12] ? < 30%

Record lookup: for human ANO6 (Homo sapiens, UniProt Q4KMQ2), what inhibition at 0.1 µM belongs to CN1CCN(c2ccc(CNC(=O)c3cccc(Nc4ccc(-c5ccccc5)nn4)c3)cc2)CC1 [Compound 197] ? < 30%

Record lookup: for human ANO6 (Homo sapiens, UniProt Q4KMQ2), what inhibition at 0.1 µM belongs to Cc1c(C2CC2NC(=O)c2cccc(Nc3ncc(-c4cccc(F)c4)cn3)c2)cnn1C (stereo not drawn) [Compound 150] ? < 30%

Record lookup: for human ANO6 (Homo sapiens, UniProt Q4KMQ2), what inhibition at 0.1 µM belongs to O=C(NCc1ccc(F)c(F)c1)c1cccc(Nc2ccc(-c3ccccc3)nn2)c1 [Compound 230] ? < 30%

Record lookup: for human ANO6 (Homo sapiens, UniProt Q4KMQ2), what inhibition at 0.1 µM belongs to CSc1ccc(CNC(=O)c2cccc(Nc3ccc(-c4ccccc4)nn3)c2)cc1 [Compound A44] ? < 30%

Record lookup: for human ANO6 (Homo sapiens, UniProt Q4KMQ2), what inhibition at 0.1 µM belongs to COC(=O)c1ccccc1CCNC(=O)c1cccc(Nc2ncc(-c3cccc(F)c3)cn2)c1 [Compound 127] ? < 30%

Record lookup: for human ANO6 (Homo sapiens, UniProt Q4KMQ2), what inhibition at 0.1 µM belongs to O=C(Nc1cccc(F)c1)c1cccc(Nc2ccc(-c3ccccc3)cn2)c1 [Compound 128] ? ≥ 60%

Record lookup: for human ANO6 (Homo sapiens, UniProt Q4KMQ2), what inhibition at 0.1 µM belongs to O=C(Nc1ccc(N2CCOCC2)cc1)c1cccc(Nc2ncc(-c3cccc(F)c3)cn2)c1 [Compound A84] ? < 30%

Record lookup: for human ANO6 (Homo sapiens, UniProt Q4KMQ2), what inhibition at 0.1 µM belongs to CCCOc1ccc(CNC(=O)c2cccc(Nc3ccc(-c4ccccc4)nn3)c2)cc1 [Compound A47] ? 30 to 60%

Record lookup: for human ANO6 (Homo sapiens, UniProt Q4KMQ2), what inhibition at 0.1 µM belongs to O=C(NC1CCCCCC1)c1cccc(Nc2ccc(-c3ccccc3)nn2)c1 [Compound A39] ? ≥ 60%

Record lookup: for human ANO6 (Homo sapiens, UniProt Q4KMQ2), what inhibition at 0.1 µM belongs to COc1cccc(CNC(=O)c2cccc(Nc3ccc(-c4ccccc4)nn3)c2)c1 [Compound A76] ? < 30%

Record lookup: for human ANO6 (Homo sapiens, UniProt Q4KMQ2), what inhibition at 0.1 µM belongs to O=C(NCc1ccc(C(F)(F)F)cc1C(F)(F)F)c1cccc(Nc2ncc(-c3cccc(F)c3)cn2)c1 [Compound 208] ? < 30%
